The reported measurements were obtained from PubChem BioAssay.

Assay: plasmodial surface anion channel blockers, osmotic lysis – cell-based, P. falciparum Indochina, OD700, 2 h, primary screen (AID 1155);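 note: lysis reports solute entry through the parasite surface anion channel PSAC; channel blockers reduce lysis of infected cells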
Settings: P. falciparum Indochina infected erythrocytes, higher = more signal, called active from +8 up or from −8 down
Activity calls are given as the source filed them.
Metric: z-score

Some solved entries appear below for comparison.
- CCOc1cc(C(O)C2C=CC3C(=O)NC(=O)C3N2Nc2ccc(Cl)cc2Cl)ccc1O (stereo not drawn): 0.0352 (inactive)
- CCOC(=O)C1=C[C@@H](c2ccccc2)N(S(=O)(=O)c2ccc(C)cc2)[C@H]1c1ccc(OC)cc1: 1.07 (inactive)
- COc1cc(NN2C(C(O)c3cc(OC)c(OC)c(OC)c3)C=CC3C(=O)N(C)C(=O)C32)cc(OC)c1OC (stereo not drawn): 0.0378 (inactive)
- CCC1=C2CN(Cc3ccccc3)[C@@H](C(=O)Cc3ccccc3)C2C=CCC1 (stereo partly drawn): -1.13 (inactive)
- CC(=O)NCCCC[C@@H]1NC(=O)[C@@H]2C[C@H](C(=O)NCCCCCN)[C@H](c3cccc(OCCO)c3)N2C1=O: -0.543 (inactive)
- [N-]=[N+]=Nc1ccccc1C[C@]1(C(=O)O)COC(c2ccc(OCCCO)cc2)=N1: 8.27 (active)

Prompt line: Look at this molecule and give its reported z-score. COc1ccc([Si](C)(C)[C@@H]2[C@@H](CC(=O)N3Cc4ccccc4C[C@H]3CO)O[C@]3(C(=O)N(Cc4ccc(N5C(=O)c6cccc7cccc5c67)cc4)c4ccccc43)[C@H]2C)cc1
Response line: 1.49 (inactive)

Prompt line: # query: z-score of entry CC1CC/C=C\[C@H]2OC34C=CCN(C(C)C)C(=O)[C@H]3N(CCO)C(=O)[C@@H]4C2C(=O)O1 (stereo partly drawn)
Response line: 0.22 (inactive)

----------
Test system: XIP peptide (Xip251-270)
Experiment: compounds binding XIP fragment 251-270 – biochemical, small-molecule microarray, fluorescence 635/667 nm, 0.5 µg/mL protein, primary screen (AID 1183)
Details: fluorescence 635 nm, higher = more signal
Below, each entry is listed with its recorded composite z-score.
Returns: the value as a bare number; no unit string appended.

• CC(C)C(CO)N1C(=O)[C@@H]2[C@H]3C(=O)OCC=C[C@H]3OC23C=CCN(c2ccc(Cl)cc2)C(=O)[C@@H]13 (some centres not stated) = -0.202
• COc1cc2c(cc1O)C(C1CC1)N(Cc1cccc(OC(F)(F)F)c1)CC2 (configuration not stated) = 0.651
• [N-]=[N+]=Nc1ccccc1[C@H]1OC(c2ccc(OCCCO)cc2)=N[C@@]1(Cc1ccccc1)C(=O)NCCN1CCOCC1 = 0.83
• COC(=O)[C@@H]1N=C(c2ccc(OCCCO)cc2)O[C@@H]1c1ccccc1 = 0.759

Prompt line: Need composite z-score, item CCCC=C(CCC)[C@@H](NC(=O)c1cccs1)c1ccc(C(=O)OC)cc1
Response line: 0.285

Prompt line: Tell me the measured composite z-score of CC(=O)NCCCC[C@@H]1NC(=O)[C@@H]2C[C@H](C(=O)NCCCCCN)[C@H](c3cccc(OCCO)c3)N2C1=O , please.
Response line: 0.878

Prompt line: Recorded composite z-score for COc1cccc(C)c1NC(=O)O[C@H]1[C@H](OC(=O)Nc2ccccc2-c2ccccc2)[C@H](OC(=O)Nc2ccccc2-c2ccccc2)[C@@H](OC)O[C@@H]1CO , please?
Response line: 0.729

Prompt line: Which measured composite z-score value corresponds to O=C(Cc1ccccc1)[C@H]1C2C=CCCC(c3ccccc3)=C2CN1Cc1ccccc1 (some centres not stated) ?
Response line: -0.0929

Prompt line: Item under review: COC(=O)C1=CC(CCCO)=CC(c2cccs2)N(C)C=C1C(=O)OC (configuration not stated) . Reported composite z-score?
Response line: 0.819

Prompt line: Which composite z-score is listed for CCN(CC)c1ccc(N2CC=CC34O[C@@H]5/C=C\CCCOC(=O)C5[C@H]3C(=O)N(C(C)CO)[C@@H]4C2=O)cc1 (some centres not stated) ?
Response line: 0.213

Prompt line: What does the record list as composite z-score for C=C(COC)/C(=C/C[C@H](OC(=O)c1ccncc1)c1ccc(CO)o1)c1cnc2ccccc2c1 ?
Response line: 0.447

Prompt line: Name the recorded composite z-score for CCCCC=C[C@@H](NC(=O)OCc1ccccc1Cl)c1ccccc1 .
Response line: 0.573

Prompt line: What measured composite z-score goes with [N-]=[N+]=NCc1ccccc1[C@@H]1OC(c2ccc(OCCCO)cc2)=N[C@]1(CCS(=O)(=O)c1ccccc1)C(=O)O ?
Response line: 0.964

Prompt line: Recorded composite z-score for C#Cc1cc2ccccc2oc1=O , please?
Response line: 0.35

Prompt line: Quick one: composite z-score for COCC(=C=CC[C@H](O)c1ccccc1OCCO)C[C@H](O)c1ccccn1 ?
Response line: 0.0608

Prompt line: Given the entry CCOC(=O)C[C@H]1[C@H](OC(=O)Cc2ccc3c(c2)OCO3)[C@@H](NC(=O)c2ccc3ccccc3n2)c2cc(OCCCO)ccc2N1C(=O)c1ccccc1 , report its measured composite z-score.
Response line: 0.256

Prompt line: Any idea what its composite z-score is? The compound is COC(=O)[C@@]1(Cc2ccccc2)[C@H]2c3cc(C(=O)N(C)C)n(Cc4ccc(C)o4)c3C[C@H]2CN1C(=O)c1ccccc1
Response line: -0.523

----------
Test system: Fibrinogen (Alexa647-labelled)
Experiment: Alexa647-fibrinogen binding to printed small molecules – biochemical, small-molecule microarray, 635/667 nm fluorescence, artefact control for SMM control-protein annotation, profiling panel (AID 1131);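 note: z-score merges 667 nm fluorescence with per-spot signal-to-noise over triplicate slides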
Conditions: fibrinogen-A647 binding fluorescence, higher = more signal
Please use fulfilled whenever composite z-score is not below 0.7, and not fulfilled whenever it is.

// known answers, use as guide
- N[C@@H](Cc1ccccc1)C(=O)NCc1cn(Cc2ccccc2)nn1: not fulfilled
- C=CCN1C(=O)[C@]2(CCC(=O)OC(C)(C)C)N=C(c3ccc(OCCCO)cc3)O[C@@H]2c2ccccc21: not fulfilled
- CCOC(=O)C[C@H]1[C@H](OC(=O)Cc2ccc3c(c2)OCO3)[C@@H](NC(=O)C2CCCCC2)c2cc(OCCCO)ccc2N1C(=O)c1ccccc1: fulfilled
- COc1ccc([Si](C)(C)[C@@H]2[C@@H](CCO)O[C@]3(C(=O)N(Cc4ccccc4)c4ccc(NC(=O)[C@H](C)O)cc43)[C@H]2C)cc1: fulfilled
- O=C1O[C@@H](c2ccccc2)[C@@H](c2ccccc2)N2[C@@H](c3ccc(O)cc3)[C@]3(C(=O)Nc4ccc(C#CCCO)cc43)[C@@H](C(=O)N3CCN(c4ncccn4)CC3)[C@H]12: not fulfilled

Prompt line: Does the reported composite z-score for CCOC(=O)C[C@H]1[C@H](OC(=O)c2cc3ccccc3oc2=O)[C@@H](NC(=O)c2ccccc2)c2cc(OCCCO)ccc2N1C(=O)c1ccccc1 fall at or above the 0.7 mark?
Response line: not fulfilled

Prompt line: Evaluate COc1ccc([Si](C)(C)[C@@H]2[C@@H](CCO)O[C@]3(C(=O)N(Cc4ccccc4)c4ccc(N5CCOC5=O)cc43)[C@H]2C)cc1 : composite z-score at minimum 0.7?
Response line: not fulfilled

Prompt line: Quick check: does CN(C)C(=O)[C@@]1(Cc2ccccc2CN=[N+]=[N-])N=C(c2ccc(OCCCO)cc2)O[C@H]1c1ccccc1N=[N+]=[N-] have composite z-score greater than or equal to 0.7?
Response line: fulfilled

----------
System: Noggin (protein binding on small-molecule microarray)
Test: small molecules binding Noggin protein – biochemical, 635/667 nm fluorescence, primary screen (AID 1095);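 note: score merges 667 nm feature fluorescence with signal to noise over triplicate slides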
Details: 635 nm fluorescence, higher = more signal
Metric: composite z-score
Just the number, please, no unit attached.

See these solved cases before continuing.
• COC(=O)C(CC#Cc1ccc2c(c1)[C@]1(C(=O)N2)[C@H](c2ccc(O)cc2)N2[C@H](c3ccccc3)[C@H](c3ccccc3)OC(=O)[C@H]2[C@@H]1C(=O)NC[C@H](O)c1ccccc1)C(=O)OC = 0.668
• COC(=O)C/C=C/C[C@]1(O)C(=O)N(C)c2ccccc21 = 0.739
• Cc1ccc(S[C@]2(C(=O)NCC(F)(F)F)CC(=O)N(Cc3cc(C(F)(F)F)cc(C(F)(F)F)c3)[C@@H]2c2ccc(CO)cc2I)cc1 = -0.716
• C=CC[C@@H](OC(=O)Nc1ccc(SC)cc1)c1ccc(O)c(F)c1 = 0.713
• CCOC(=O)C[C@H]1[C@H](OC(=O)c2ccc(C(=O)c3ccccc3)cc2)[C@@H](NC(=O)CC(C)C)c2cc(OCCCO)ccc2N1C(=O)c1ccccc1 = 0.937

Prompt line: Item CCCC1(C(=O)OC)C=C2C(=C(C)C(=O)C2C)CN1 (centres undefined) with Noggin (protein binding on small-molecule microarray) - composite z-score?
Response line: -0.0743

Prompt line: What value of composite z-score on Noggin (protein binding on small-molecule microarray) does CCCCC(CC)C(O)C1C=CC2C(=O)N(c3ccccc3)C(=O)C2N1Nc1ccc(C#N)cc1 (centres undefined) have?
Response line: 0.208

Prompt line: Under Noggin (protein binding on small-molecule microarray): composite z-score value of CCCCC[C@H]1OC[C@@]23C=C(Br)[C@@H](CC12)[C@@]1(CO1)C3=O (some centres undefined) ?
Response line: 0.483

Prompt line: Notebook: pull reported composite z-score for Noggin (protein binding on small-molecule microarray), entry CN1C2C=C(CCCO)C(C3C(=O)N(C(N)=O)C(=O)C32)C1C1CC1 (centres undefined)
Response line: -0.22

Prompt line: GET /values?readout=composite z-score&system=Noggin (protein binding on small-molecule microarray)&item= CCOC(=O)C[C@H]1[C@H](OC(=O)Cc2ccc3c(c2)OCO3)[C@@H](NC(=O)C2CCCCC2)c2cc(OCCCO)ccc2N1C(=O)c1ccccc1
Response line: 0.0367
